target-or-test-system: thromboxane A2 receptor (TP) (Homo sapiens, UniProt P21731)
Construct: using human platelets as the source of the receptor
Sequence (P21731 1-343): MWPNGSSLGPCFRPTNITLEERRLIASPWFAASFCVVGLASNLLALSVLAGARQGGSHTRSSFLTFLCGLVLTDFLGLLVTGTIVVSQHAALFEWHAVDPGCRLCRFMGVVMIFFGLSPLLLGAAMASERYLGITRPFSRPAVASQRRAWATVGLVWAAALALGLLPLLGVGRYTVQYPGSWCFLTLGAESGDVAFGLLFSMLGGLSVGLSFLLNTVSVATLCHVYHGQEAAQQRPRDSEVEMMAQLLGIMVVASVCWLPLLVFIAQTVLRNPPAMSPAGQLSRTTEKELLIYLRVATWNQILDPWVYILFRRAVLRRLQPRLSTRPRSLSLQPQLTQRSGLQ
procedure-text: Human Thromboxane A2 Receptor Binding Assay
applied-conditions: human platelets; 10 nM [3H]SQ29548; 1 hour, room temperature
pIC50: −log10 of the molar value.
measured-endpoint: pIC50

| mol | pIC50 |
| --- | --- |
| Cc1cc(C)cc(S(=O)(=O)N[C@@H]2CCCc3c(OCC(=O)O)cccc32)c1 | 5.09 |
| CN([C@@H]1CCCc2c(OCC(=O)O)cccc21)S(=O)(=O)c1cc(OC2CCCC2)cc(C(F)(F)F)c1 | 5.07 |

FYI, the data here is from patent US20100041760A1.
